# Test system: MiaPaCa-2 cells
# protocolText: MTT assay before and after HA receptor blockade
# Type: cell-based, human
# experimentalConditions: before the blockade of HA receptors, MiaPaCa-2, 72 h
pIC50: −log10 of the molar value.

{"compound": "COc1cc(/C=C/C(=O)C(=Cc2ccc(F)c(F)c2)C(=O)/C=C/c2ccc(O)c(OC)c2)ccc1O [CDF, curcumin difluorinated]", "pIC50": 6.33}
